Values from ChEMBL document CHEMBL4507317

readout: Ki (µM)
Hi! Could you send only the number? It should be in µM, unit omitted.

Find Ki (UniProtKB P28223) for the entry "O=C(Nc1ccc(Oc2ccc(F)cc2)cc1)N1CCc2ncccc2[C@H]1c1ccc(F)cc1"
Sequence (P28223 whole entry): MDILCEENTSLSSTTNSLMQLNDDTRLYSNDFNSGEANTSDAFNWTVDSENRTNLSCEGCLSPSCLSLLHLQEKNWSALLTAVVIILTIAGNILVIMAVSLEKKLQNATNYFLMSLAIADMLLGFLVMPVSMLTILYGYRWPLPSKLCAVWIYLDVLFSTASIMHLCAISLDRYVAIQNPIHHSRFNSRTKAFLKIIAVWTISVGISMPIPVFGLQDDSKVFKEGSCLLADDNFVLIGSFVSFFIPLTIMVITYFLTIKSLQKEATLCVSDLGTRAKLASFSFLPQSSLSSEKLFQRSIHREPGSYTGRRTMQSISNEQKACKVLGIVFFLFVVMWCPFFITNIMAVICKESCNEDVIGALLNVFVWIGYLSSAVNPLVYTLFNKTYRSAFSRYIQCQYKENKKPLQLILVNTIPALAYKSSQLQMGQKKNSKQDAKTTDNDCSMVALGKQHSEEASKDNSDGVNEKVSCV
3.67

====

Would you mind telling me the reported Ki of each entry?
// note: answer is a bare numeric in µM

State its Ki on Kappa-type opioid receptor (Homo sapiens): "O=C(Nc1cnc(Oc2ccc(F)cc2)nc1)N1CCc2ncccc2[C@@H]1c1ccc(F)cc1"
Sequence (P41145 whole entry): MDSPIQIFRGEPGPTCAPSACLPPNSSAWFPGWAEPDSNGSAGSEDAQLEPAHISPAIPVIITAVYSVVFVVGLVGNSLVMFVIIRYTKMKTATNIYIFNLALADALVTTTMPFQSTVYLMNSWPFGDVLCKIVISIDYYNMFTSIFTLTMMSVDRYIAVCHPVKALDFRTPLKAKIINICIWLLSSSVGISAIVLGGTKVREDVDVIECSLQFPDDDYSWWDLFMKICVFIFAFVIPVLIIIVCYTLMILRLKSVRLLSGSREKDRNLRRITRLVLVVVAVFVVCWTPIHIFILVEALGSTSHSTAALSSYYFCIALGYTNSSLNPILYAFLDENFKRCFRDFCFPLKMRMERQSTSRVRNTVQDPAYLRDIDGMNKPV
7.63

Param readout= Ki; system= Kappa-type opioid receptor (Homo sapiens); entry= "O=C(Nc1ccc(Oc2ccc(F)cc2)cc1)N1CCc2ncccc2[C@H]1c1ccc(F)cc1" ; returns value.
3.13
